Hello, the source for this data is patent US20050267182A1, in case you need it.

# target_desc: FLT3 (Homo sapiens, UniProt P36888)
# Construct: FLT3(DKIN); made in house
# Sequence (P36888 610-943 limits assumed): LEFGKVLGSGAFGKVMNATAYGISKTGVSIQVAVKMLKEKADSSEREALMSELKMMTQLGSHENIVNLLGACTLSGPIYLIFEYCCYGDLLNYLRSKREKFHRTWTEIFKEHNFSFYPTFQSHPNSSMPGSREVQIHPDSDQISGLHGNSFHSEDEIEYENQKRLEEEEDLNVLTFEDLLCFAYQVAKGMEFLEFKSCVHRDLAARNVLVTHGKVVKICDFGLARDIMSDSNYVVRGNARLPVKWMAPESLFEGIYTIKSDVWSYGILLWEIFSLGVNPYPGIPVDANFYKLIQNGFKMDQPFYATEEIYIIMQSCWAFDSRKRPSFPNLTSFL
# method_summary: Binding constant (Kd) measurement, phage-displayed kinase competition binding assay
# stated_conditions: FLT3(DKIN) construct
property: Binding Assay: FLT3(DKIN)

line_notation	recorded_result
CC(C)(C)c1cc(NC(=O)Nc2ccc(OCc3c(Cl)cccc3Cl)cc2)no1	+ + + +
CC(C)c1ccc(NC(=O)Nc2cc(C(C)(C)C)on2)cc1	+ +
CC(C)(C)c1cc(NC(=O)Nc2ccc(NC(=O)C3CCNCC3)cc2)no1	+ + +
CCOc1ccc(NC(=O)Nc2cc(C(C)(C)C)on2)cc1	+ + + +
COc1cccc(CNC(=O)Nc2cc(C(C)(C)C)on2)c1	+ + + +
C=C/C(=C\C=C\Cl)NC(=O)Nc1ccc(C(=O)OCCOC)cc1	+ +
CC(C)(C)c1cc(NC(=O)Nc2ccc(NC(=O)c3ncccc3O)cc2)no1	+ + + +
CC(C)(C)c1cc(NC(=O)Nc2ccc(NC(=O)c3cnn(-c4cccc(Cl)c4)c3Br)cc2)no1	+ + + +
CC(C)(C)c1cc(NC(=O)Nc2ccc(NC(=O)c3cccc4cccnc34)cc2)no1	+ + + +

---

# target_desc: FLT3 (Homo sapiens, UniProt P36888)
# Construct: FLT3(DKIN); made in house
# Sequence (P36888 610-943 limits assumed): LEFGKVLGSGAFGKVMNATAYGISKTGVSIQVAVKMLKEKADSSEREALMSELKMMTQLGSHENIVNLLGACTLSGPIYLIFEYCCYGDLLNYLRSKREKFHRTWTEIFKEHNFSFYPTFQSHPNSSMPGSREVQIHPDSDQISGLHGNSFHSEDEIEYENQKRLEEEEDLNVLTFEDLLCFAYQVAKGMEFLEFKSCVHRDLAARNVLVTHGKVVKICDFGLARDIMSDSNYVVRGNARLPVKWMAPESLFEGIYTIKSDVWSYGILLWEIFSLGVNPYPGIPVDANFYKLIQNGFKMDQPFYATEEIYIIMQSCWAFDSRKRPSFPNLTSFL
# method_summary: Binding constant (Kd) measurement, phage-displayed kinase competition binding assay
# stated_conditions: FLT3(DKIN) construct
property: Binding Assay: FLT3(DKIN)

compound	property	recorded_result
CC1CN(CCOc2ccc(NC(=O)Nc3cc(C(C)(C)C)on3)cc2)CCN1 (stereo not shown)	Binding Assay: FLT3(DKIN)	+ +
CC(C)(C)c1cc(NC(=O)Nc2ccc(NC(=O)c3cc([N+](=O)[O-])ccn3)cc2)no1	Binding Assay: FLT3(DKIN)	+ + + +
CC(C)(C)c1noc(-c2ccc(NC(=S)Nc3cc(C(C)(C)C)on3)cc2)n1	Binding Assay: FLT3(DKIN)	+ +
CC(C)(C)c1cc(NC(=O)Nc2ccc(NC(=O)c3ccccc3Cl)cc2)no1	Binding Assay: FLT3(DKIN)	+ + + +
